Each recorded value in this set is attributed to ChEMBL document CHEMBL3867436.

Would you kindly list pIC50 for each of these compounds?
- assay-notes: Cytotoxicity against human NCI-H460 cells assessed as decrease in cell viability after 72 hrs by MTT assay
- Format: functional, cell-based
- measurement-parameters: NCI-H460, 72 h
One number for each entry, as −log10 of the molar value.

Below are 3 compounds. Give each one its pIC50.
1. COC1=C(C)C(=O)C2=C(C1=O)[C@H]1[C@@H]3CC4=C(C(=O)C(OC)=C(C)C4=O)[C@H](COC(=O)c4ccncc4)N3[C@@H](C#N)[C@H](C2)N1C
2. COC1=C(C)C(=O)C2=C(C1=O)[C@H]1[C@@H]3CC4=C(C(=O)C(OC)=C(C)C4=O)[C@H](COC(=O)c4cccc(C(F)(F)F)c4)N3[C@@H](C#N)[C@H](C2)N1C
3. COC1=C(C)C(=O)C2=C(C1=O)[C@H]1[C@@H]3CC4=C(C(=O)C(OC)=C(C)C4=O)[C@H](COC(=O)c4cccnc4)N3[C@@H](C#N)[C@H](C2)N1C

1. 8.80
2. 7.52
3. 8.22

----------
- assay-notes: Cytotoxicity against human NCI-H460 cells assessed as decrease in cell viability after 72 hrs by MTT assay
- Type: functional, cell-based
- measurement-parameters: NCI-H460, 72 h
endpoint: IC50 (nM)
One number for each entry, in nM.

Worked cases, IC50 given:
COC1=C(C)C(=O)C2=C(C1=O)[C@H]1[C@@H]3CC4=C(C(=O)C(OC)=C(C)C4=O)[C@H](COC(=O)/C=C/c4cccnc4)N3[C@@H](C#N)[C@H](C2)N1C: 2.8
COC1=C(C)C(=O)C2=C(C1=O)[C@H]1[C@@H]3CC4=C(C(=O)C(OC)=C(C)C4=O)[C@H](COC(=O)/C=C/c4cccc(F)c4)N3[C@@H](C#N)[C@H](C2)N1C: 9.8
COC1=C(C)C(=O)C2=C(C1=O)[C@H]1[C@@H]3CC4=C(C(=O)C(OC)=C(C)C4=O)[C@H](COC(=O)/C=C/c4ccccc4)N3[C@@H](C#N)[C@H](C2)N1C: 18

Could you report IC50 for every entry in the following list?
1. COC1=C(C)C(=O)C2=C(C1=O)[C@H]1[C@@H]3CC4=C(C(=O)C(OC)=C(C)C4=O)[C@H](COC(=O)/C=C/c4ccc(F)cc4)N3[C@@H](C#N)[C@H](C2)N1C
2. COC1=C(C)C(=O)C2=C(C1=O)[C@H]1[C@@H]3CC4=C(C(=O)C(OC)=C(C)C4=O)[C@H](COC(=O)/C=C/c4ccncc4)N3[C@@H](C#N)[C@H](C2)N1C
3. COC1=C(C)C(=O)C2=C(C1=O)[C@H]1[C@@H]3CC4=C(C(=O)C(OC)=C(C)C4=O)[C@H](COC(=O)c4cccc(F)c4)N3[C@@H](C#N)[C@H](C2)N1C

12
20
11
